Biological target: T1, rat calcitonin (a) receptor (rat, UniProt P32214 25-516)
T1 sequence (looked up): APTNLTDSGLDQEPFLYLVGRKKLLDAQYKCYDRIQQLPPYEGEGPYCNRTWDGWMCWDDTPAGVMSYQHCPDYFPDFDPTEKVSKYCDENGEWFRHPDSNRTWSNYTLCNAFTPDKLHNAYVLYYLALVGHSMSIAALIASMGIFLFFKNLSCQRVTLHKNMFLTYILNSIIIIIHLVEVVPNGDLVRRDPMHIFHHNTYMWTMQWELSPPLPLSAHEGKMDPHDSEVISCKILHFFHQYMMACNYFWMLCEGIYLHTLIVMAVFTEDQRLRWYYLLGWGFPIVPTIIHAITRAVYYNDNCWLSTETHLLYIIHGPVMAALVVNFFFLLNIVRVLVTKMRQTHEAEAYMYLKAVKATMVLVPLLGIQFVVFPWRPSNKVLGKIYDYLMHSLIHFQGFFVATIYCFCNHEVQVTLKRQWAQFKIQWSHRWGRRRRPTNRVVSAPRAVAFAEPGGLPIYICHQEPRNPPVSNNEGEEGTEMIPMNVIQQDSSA
Test: cell-based or functional assay
Starred links: 1 amine or outer side, 2 acyl side, 3 side chain; linkers in the order of their positions; H or OH if unused. Positions of bridges follow the written chain, without caps; N, C: chain ends. Primed or numbered codes have the meaning given here. *: point of attachment. C18 diacid′ = 17-carboxyheptadecanoyl on γGlu amine: (S)-4-carboxy-4-(17-carboxyheptadecanoylamino)butyryl; C20 diacid = O=C(O)CCCCCCCCCCCCCCCCCCC(=O)*; C18 diacid = O=C(O)CCCCCCCCCCCCCCCCC(=O)*; γGlu = O=C(O)[C@H](CCC(=O)[*:2])N[*:1]
ATTRIBUTE MEASURED: CTa receptor rat EC50 (nM)
Report only the number, with the unit nM understood.

Solved entries:
- BINDER: "{C18 diacid-γGlu}-KCNTATCATQRLAEFLHHSSNNFGPILPPTNVGSNTY-NH2 (disulfide 2-7; not fully specified; printed as N-alpha-[(S)-4-Carboxy-4-(17-carboxyheptadecanoylamino)butyryl]-[Glu14,His17]-pramlintide) [N-alpha-[(S)-4-Carboxy-4-(17-carboxyheptadecanoylamino)butyryl]-[Glu14,His17]-pramlintide]"
  ATTRIBUTE MEASURED: "CTa receptor rat EC50"
  ASSAY RESULT: 0.433
- BINDER: "{C20 diacid-γGlu}-KCNTATCATQRLAEFLHHSSNNFGPILPPTNVGSNTP-NH2 (disulfide 2-7; not fully specified; printed as N-alpha-[(S)-4-Carboxy-4-(19-carboxynonadecanoylamino)butyryl]-[Glu14,His17,Pro37]-pramlintide) [N-alpha-[(S)-4-Carboxy-4-(19-carboxynonadecanoylamino)butyryl]-[Glu14,His17,Pro37]-pramlintide]"
  ATTRIBUTE MEASURED: "CTa receptor rat EC50"
  ASSAY RESULT: 0.076

### Prompt // CTa receptor rat EC50 lookup, key: {C18 diacid′-γGlu}-EKCNTATCATQRLAEFLRHSSNNFGPILPPTNVGSHTY-NH2 (disulfide 3-8) [N-alpha-[(S)-4-Carboxy-4-(17-carboxyheptadecanoylamino)butyryl]-Glu-[Glu14,Arg17,His35]-pramlintide]
### Response 17.6
